system: T1, MHC class I allele A*0201 monomer (human, biotinylated, bound to streptavidin-coated plate)
T1 construct: also called A2; HLA-A2
protocol summary: iTopia, multiparametric iScore
readout kind: iScore
Answer using only a numeral; do not append any unit.

Solved entries (count: 3):
{"binder": "LAELAALNL [5T4 9-mer peptide 59]", "meas value": 0.72}
{"binder": "PLADLSPFA [5T4 9-mer peptide 77]", "meas value": 0.556}
{"binder": "ILNHIVPPE [5T4 9-mer peptide 90]", "meas value": 0.426}

Value lookup for iScore; key = ILPPSLQTS [5T4 9-mer peptide 174] 0.523

Value lookup for iScore; key = SSAPFLASA [5T4 9-mer peptide 22] 0.389

Value lookup for iScore; key = LIGAIFLLV [5T4 9-mer peptide 183] 1.9

Value lookup for iScore; key = GMVVAALLA [5T4 9-mer peptide 99] 0.384

Value lookup for iScore; key = LTYVSFRNL [5T4 9-mer peptide 125] 1.11

Value lookup for iScore; key = SLQTSYVFL [5T4 9-mer peptide 176] 0.561

// provenance: patent US20090280138A1
